test: clinical; conditions: human, in vivo, po, 20 mg/kg, CL/F, cannabidiol, single 20 mg/kg oral dose of cannabidiol solution, fed; mean
recorded-metric: CL/F (mL/min/kg)
Answers are plain numbers, in mL/min/kg.

Q: Supply recorded CL/F for C=C(C)[C@@H]1CCC(C)=C[C@H]1c1c(O)cc(CCCCC)cc1O here.
A: 36.2

###

test: Pharmacokinetic food-effect study, single 20 mg/kg dose, healthy subjects (Example 17); settings: human, in vivo, po, 20 mg/kg, AUC0, cannabidiol, single 20 mg/kg oral, fasted; mean ± SD
recorded-metric: AUC (ng·h/mL)
Answers are plain numbers, in ng·h/mL.

Q: Supply recorded AUC for C=C(C)[C@@H]1CCC(C)=C[C@H]1c1c(O)cc(CCCCC)cc1O here.
A: 0.325
